Measured normalized growth accompanies every entry in the list below.
Test: chemical genetic growth profiling, strain panel (AID 1159580);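 further: tested at 20 µM; growth read once vehicle control cultures reached saturation at 30 °C; 1 = growth at the plate median or of vehicle wells; lower values mean less growth of the strain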
Details: S. cerevisiae deletion strains, growth OD, locus YOR270C, strain vph1, active compounds read low
The campaign covered roughly 5,500 compounds. About 2,000 (36%) were called active. Not shown: some 18% with an inconclusive outcome. Some of the results follow.

Compound	normalized growth
CC(C)N(CCC(C(N)=O)(c1ccccc1)c1ccccn1)C(C)C (stereo not given)	0.0928
CCc1cc(C(N)=S)ccn1	1.03
CCCCCc1c2c(cc(O)c1C(=O)O)OC(=O)c1c(cc(OC)cc1C(=O)CCCC)O2	1.02
NC(=O)c1ncn([C@@H]2O[C@H](CO)[C@@H](O)[C@H]2O)n1	1.02
CC(C)(C)NCC(O)c1cc(O)cc(O)c1 (stereo not given)	0.932
CC(CC(C(N)=O)(c1ccccc1)c1ccccc1)N(C)C (stereo not given)	0.954
CC(=O)O[C@]1(C(C)=O)CCC2C3C=C(Cl)C4=CC(=O)[C@@H]5C[C@@H]5[C@]4(C)C3CC[C@@]21C (stereo not given in full)	0.954
C=CC1C2=CCOC(=O)C2=COC1OC1OC(CO)C(O)C(O)C1O (stereo not given)	1.11
CCCCCC(=O)Cc1cc(O)cc(O)c1C(=O)Oc1cc(CC(=O)CCCCC)c(C(=O)O)c(OC)c1	0.607
NS(=O)(=O)c1cc(C2(O)NC(=O)c3ccccc32)ccc1Cl (stereo not given)	1.01
